Recorded values, source BigSolDB 2.1.

- experimental parameters: in water, 318.2 K
experimental readout: solubility (mole fraction)
Lab note: record just the number, no unit beside it.

## Input Answer with the recorded solubility (mole fraction) of `C[C@]12CC[C@@H]3c4ccc(O)cc4CC[C@H]3[C@@H]1C[C@@H](O)[C@@H]2O` only.
## Output 0.000422

----------
- experimental parameters: in 2-aminoethanol, 308.2 K
Attribute: solubility (mole fraction)
Lab note: record just the number, no unit beside it.

- line notation: "C[C@]12CC[C@@H]3c4ccc(O)cc4CC[C@H]3[C@@H]1C[C@@H](O)[C@@H]2O"
  solubility (mole fraction): 0.018

In the following, a different molecule is considered.
## Input Answer with the recorded solubility (mole fraction) of `C[C@@H]1CC[C@@]2(OC1)O[C@H]1C[C@H]3[C@@H]4CC=C5C[C@@H](O)CC[C@]5(C)[C@H]4CC[C@]3(C)[C@H]1[C@@H]2C` only.
## Output 0.00625

----------
- experimental parameters: in n-octanol, 323.2 K
experimental readout: solubility (mole fraction)

- line notation: "C[C@]12CC[C@@H]3c4ccc(O)cc4CC[C@H]3[C@@H]1C[C@@H](O)[C@@H]2O"
  solubility (mole fraction): 0.0147

In the following, a different compound is considered.
## Input Answer with the recorded solubility (mole fraction) of `C[C@@H]1CC[C@@]2(OC1)O[C@H]1C[C@H]3[C@@H]4CC=C5C[C@@H](O)CC[C@]5(C)[C@H]4CC[C@]3(C)[C@H]1[C@@H]2C` only.
## Output 0.0104

----------
- experimental parameters: in morpholine-4-carbaldehyde, 308.2 K
experimental readout: solubility (mole fraction)
Lab note: record just the number, no unit beside it.

## Input Answer with the recorded solubility (mole fraction) of `C[C@]12CC[C@@H]3c4ccc(O)cc4CC[C@H]3[C@@H]1C[C@@H](O)[C@@H]2O` only.
## Output 0.00147

## Input Answer with the recorded solubility (mole fraction) of `C[C@@H]1CC[C@@]2(OC1)O[C@H]1C[C@H]3[C@@H]4CC=C5C[C@@H](O)CC[C@]5(C)[C@H]4CC[C@]3(C)[C@H]1[C@@H]2C` only.
## Output 0.012

----------
- experimental parameters: in morpholine-4-carbaldehyde, 298.2 K
Attribute: solubility (mole fraction)

- line notation: "C[C@]12CC[C@@H]3c4ccc(O)cc4CC[C@H]3[C@@H]1C[C@@H](O)[C@@H]2O"
  result: 0.00023

## Input Answer with the recorded solubility (mole fraction) of `C[C@@H]1CC[C@@]2(OC1)O[C@H]1C[C@H]3[C@@H]4CC=C5C[C@@H](O)CC[C@]5(C)[C@H]4CC[C@]3(C)[C@H]1[C@@H]2C` only.
## Output 0.00809

----------
Attribute: solubility (mole fraction)
- experimental parameters: in n-octane, 298.2 K
Lab note: record just the number, no unit beside it.

- line notation: "C[C@@H]1CC[C@@]2(OC1)O[C@H]1C[C@H]3[C@@H]4CC=C5C[C@@H](O)CC[C@]5(C)[C@H]4CC[C@]3(C)[C@H]1[C@@H]2C"
  number: 0.00013

In the following, a different compound is considered.
## Input Answer with the recorded solubility (mole fraction) of `C[C@]12CC[C@@H]3c4ccc(O)cc4CC[C@H]3[C@@H]1C[C@@H](O)[C@@H]2O` only.
## Output 0.000735
